System: LOX IMVI melanoma
assay_comment: NCI tumour cell line growth inhibition, 48 h
quantity_measured: TGI

get_value(item= CC(=O)Nc1ccc2c(c1)C(=O)c1ccccc1-2 , readout=TGI) returns > 100 µM

get_value(item= Cc1csc(=Nc2ccccc2)n1CCC(O)(P(=O)(O)O)P(=O)(O)O , readout=TGI) returns > 100 µM

get_value(item= COC(=O)C1=C(OC)C(=P2(c3ccccc3)CC(c3ccccc3)=C2c2ccccc2)C(C(=O)OC)=C1C(=O)OC (stereo not given) , readout=TGI) returns > 100 µM

get_value(item= COc1ccc(-c2c(Nc3ccccn3)nc3c(C4=CCCCC4)c(-c4ccccc4)[nH]n3c2=O)cc1 , readout=TGI) returns > 100 µM

get_value(item= O=S(=O)(O)C(c1ccccc1)C(O)c1ccccc1 (stereo not given) , readout=TGI) returns > 100 µM

###

Tested on: UACC-257 melanoma
assay_comment: NCI tumour cell line growth inhibition, 48 h
Please respond with reported TGI for every item in the list.

Form field, TGI with UACC-257 melanoma, item CO/C(N)=C(\C#N)N=Cc1ccsc1 : > 100 µM

Form field, TGI with UACC-257 melanoma, item COC(=O)/C(=N\N)C(C(=O)C(=O)Nc1cc(Cl)ccc1Cl)c1nc2ccc([N+](=O)[O-])cc2[nH]c1=O (centres undefined) : > 100 µM

Form field, TGI with UACC-257 melanoma, item CCCCCNC(=O)CCCCCCCCCCCNC(=O)CCCCCCCCCCN1C=CC(=CC=C2C=CC(=O)C=C2)C=C1 : 88.7 µM

Form field, TGI with UACC-257 melanoma, item N#Cc1c(CC(=O)O)cc(=O)n2c1[nH]c1ccccc12 : > 100 µM

Form field, TGI with UACC-257 melanoma, item CCN(C(=O)N[C@@H](CC(C)C)C(=O)NCC(=O)OC)c1ccccc1 : 61.9 µM

Form field, TGI with UACC-257 melanoma, item Cc1ccc2c(=O)cc(-c3cc(C)sc3C)[nH]c2n1 : > 100 µM

Form field, TGI with UACC-257 melanoma, item CCCN1C(=O)CN(S(=O)(=O)c2ccc(Cl)cc2)C1=O : > 100 µM

Form field, TGI with UACC-257 melanoma, item Clc1ccc(C(OCn2ccnc2)c2nc3ccccc3[nH]2)c(Cl)c1 (centres undefined) : > 100 µM

Form field, TGI with UACC-257 melanoma, item CC(C)=CCC[C@@H](C)C1=C(N)C(O)=C(C)C(=O)C1=O : > 75 µM

###

System: CAKI-1 renal
assay_comment: NCI tumour cell line growth inhibition, 48 h
Please respond with reported TGI for every item in the list.

get_value(item= N/C(CCSCCSCC/C(N)=N\O)=N\O , readout=TGI) returns > 100 µM

get_value(item= C/C(=C\c1ccccc1)C(O)C(=O)c1nc2ccc(Cl)cc2[nH]c1=O (stereo not given) , readout=TGI) returns > 100 µM

get_value(item= COc1cc2c(cc1OCCCOc1cc3c(cc1OC)C(=O)N1CCC[C@H]1C(=O)N3)N=C[C@@H]1CCCN1C2=O , readout=TGI) returns 88.4 µM

get_value(item= COc1cc(Nc2nc3cc(C)ccc3nc2-c2ccccc2)cc(OC)c1OC , readout=TGI) returns > 100 µM

get_value(item= CCc1nc(N)nc(N)c1-c1ccc(N2CCOCC2)c(N=[N+]=[N-])c1 , readout=TGI) returns > 100 µM

get_value(item= CC[C@@H]1CC[C@@H]2[C@H](CC[C@]3(C)[C@@H](O[N+](=O)[O-])CC[C@@H]23)[C@H]1C(C)=O , readout=TGI) returns > 100 µM

get_value(item= O=c1c2cc(Br)ccc2nc(CNc2ccccc2)n1-c1ccccc1 , readout=TGI) returns 11.6 µM

get_value(item= CN(C)c1ccc(/C=N/N=C(\C#N)[S][Sn]([Cl])([c]2ccccc2)[c]2ccccc2)cc1 , readout=TGI) returns 2.56 µM

get_value(item= N#Cc1c(CC(=O)O)cc(=O)n2c1[nH]c1ccccc12 , readout=TGI) returns > 100 µM

get_value(item= O=C1/C(=C/c2ccc(Br)s2)NC(=S)N1CN1CCCCC1 , readout=TGI) returns 59.2 µM

get_value(item= C=CCN(CC=C)Cc1c[nH]c2ccccc12 , readout=TGI) returns > 100 µM

get_value(item= CN1CCN(C(=O)/C=C/c2ccc([N+](=O)[O-])o2)CC1 , readout=TGI) returns 34.3 µM

get_value(item= O=c1[nH]c2ccccc2c2oc3ccccc3c12 , readout=TGI) returns > 100 µM

get_value(item= COc1ccc(Cn2c(Br)c3c(c2-c2cc(OC)c(OC)c(OC)c2)CCc2sc(N)nc2-3)cc1 , readout=TGI) returns > 28.2 µM

get_value(item= COC(=O)/C(=N\N)C(C(=O)C(=O)Nc1cc(Cl)ccc1Cl)c1nc2ccc([N+](=O)[O-])cc2[nH]c1=O (stereo not given) , readout=TGI) returns > 100 µM
